# Test system: OVCAR-8 ovarian
# EXPERIMENT_NOTES: NCI-60 one-dose screen, 48 h
# TEST_PARAMETERS: 10 µM unless noted
# Protocol: Growth inhibition of the OVCAR-8 human tumor cell line is measured as a screen for anti-cancer activity. Cells are grown in 96 well plates and exposed to the test compound for 48 hours. Compounds are tested at a single concentration, which is 10^-5 M for most compounds. The reported endpoint is percent growth (GI% or GIPRCNT), where numbers from 0 - 100% represent growth inhibition, and numbers from -100% - 0 represent cell death. For example, a value of 40 represents 60% growth inhibition. […]
This is part of a sample that, as a whole, favours compounds with a hit. Of some 83,000 tested, about 20% had one in any assay. Activity calls are given as the source filed them. Rule for the calls: active = growth percent below 10; inactive = the rest.
Give your call using only these classes: YES for active, NO for inactive

CC(C)(C)Nc1nc2c(OCCc3ccccc3)cccn2c1-c1ccc(O)cc1 : NO
CS(=O)(=O)c1ccc(-c2nc3ccccn3c2C=Nc2ccc(Cl)cc2)cc1 : NO
CCOC(=O)c1sc(N)c(C(=O)OCC)c1C : NO
CN(C)c1ccc(/C=c2\sc3nc4ccccc4n3c2=O)cc1 : NO
COC(=O)C1CN(S(=O)(=O)/N=C2\NC(=O)NC2=C(Cl)Cl)C1 : NO

Qu. Status in this test for Cc1ccc(C(=O)Nc2cccc(C(F)(F)F)c2)cc1Nc1nc(-c2cnccn2)nc2c1cnn2C ?
Ans. NO

Qu. What do we get for Cc1[nH]nc2ncc(C#Cc3cncc(C(=O)Nc4ccc(CN5CCN(C)CC5)c(C(F)(F)F)c4)c3)cc12 ?
Ans. NO
